test system: NCI-H460 lung; assay: NCI tumour cell line growth inhibition, 48 h
Measurement label: TGI (µM)
Respond with the bare value in µM.

Report value: TGI, system: NCI-H460 lung, compound: O=P1(NCCCl)OCCCN1CCCl (stereo unspecified) 448

###

system: A498 renal; assay: NCI tumour cell line growth inhibition, 48 h
Overview of reported TGI across a group of compounds:

Please review the entries below; each comes with its answer.
>>> result("O=C1c2cc(Br)ccc2-c2ccc3c4ccc5c6c(ccc(c7ccc1c2c73)c64)C(=O)c1cc(Br)ccc1-5")
"> 100 µM"
>>> result("O=C(N/N=C/c1ccc(Cl)cc1)c1ccc(NC(=O)c2ccccn2)cc1")
"> 100 µM"
>>> result("COc1ccc2c(c1)/C(=C/c1c(O)[nH]c(=S)[nH]c1=O)C=N2")
"> 100 µM"
>>> result("ClC1=C(Cl)C(Cl)(C2(Cl)C(Cl)=C(Cl)C(Cl)=C2Cl)C(Cl)=C1Cl")
"3.19 µM"

// switching to the query compound
Please look at this compound and report its TGI: Nc1ccc(/C=C/c2ccc3ncccc3c2)cc1 > 100 µM
